- System: Saccharomyces cerevisiae;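 also: PSI is a weighted mean of sequencing reads over stability bins, variants kept only with over 10 reads, mCherry proximal and sfGFP distal, peptide attached via GGGS linker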
- ASSAY: protein stability index of tFT-peptide fusion (C-terminal peptide) (PSI (0-1 scale)); higher = more stable (slower turnover)
- TEST_PARAMETERS: genetic background: wild type; temperature: 30 C
Given measured protein stability index, output rule met if it is greater than or equal to 0.7 and rule not met if not.

# PRIMARY_SEQUENCE, LABEL_CLASS
data = [
    ("SIKKFRTRKRRR", "rule not met"),
    ("LMLFCLGCDMSV", "rule not met"),
    ("CGCFLSELATFC", "rule not met"),
    ("LGCLHRLLGVRL", "rule met"),
    ("PAPPPPPPGTAA", "rule not met"),
    ("SSGASRWSRSKF", "rule met"),
    ("DFQRPGSFVFNG", "rule not met"),
    ("LKKDVYANNLTD", "rule not met"),
    ("RCCVPCWFMTLV", "rule not met"),
    ("PAVRRLTGLMLM", "rule not met"),
    ("PPATRSLSAASP", "rule met"),
    ("YLCCFSVAFFLG", "rule not met"),
    ("FPFWRLYNLELL", "rule not met"),
    ("HDHEARHSDSLN", "rule not met"),
]
